Hi there, I'd appreciate the recorded relative viability for every entry that follows.
test system: LU99A; experiment: relative viability (nuclei count vs DMSO), 5 days (fraction); higher = more cells survive; details: first compound 0.04 µM
Lab note: record just the number, no unit beside it.

Exercise: Need relative viability, item COc1cc(N2CCC(C(N)=O)CC2)ccc1Nc1nc(N)c(Cl)c(Nc2ccccc2S(=O)(=O)C(C)C)n1 [HG-5-88-01] + C[C@@H](Oc1cc(-c2cnn(C3CCNCC3)c2)cnc1N)c1c(Cl)ccc(F)c1Cl [Crizotinib] (partner 1 µM)
Key: 0.554

Exercise: What do we get for C[C@@H]1CN(CC(=O)Nc2ccc3c(c2)Cc2cccc(-c4cc(=O)cc(N5CCOCC5)o4)c2S3)C[C@H](C)O1 + O=C(c1cc(Cc2n[nH]c(=O)c3ccccc23)ccc1F)N1CCN(C(=O)C2CC2)CC1 [Olaparib] (partner 8 µM) ?
Key: 0.316

Exercise: What do we get for C[C@@H]1CN(CC(=O)Nc2ccc3c(c2)Cc2cccc(-c4cc(=O)cc(N5CCOCC5)o4)c2S3)C[C@H](C)O1 + Cc1nc(NC(=O)N2CCC[C@H]2C(N)=O)sc1-c1ccnc(C(C)(C)C(F)(F)F)c1 [Alpelisib] (partner 2 µM) ?
Key: 0.475

Exercise: What do we get for Clc1ccc(Nc2nnc(Cc3ccncc3)c3ccccc23)cc1 [Vatalanib] + N=C(N)NC(=N)NCCc1ccccc1 [Phenformin] (partner 250 µM) ?
Key: 0.839

====

test system: NCI-H838; experiment: relative viability (nuclei count vs DMSO), 5 days (fraction); higher = more cells survive; settings: first compound 4 µM
Hi there, I'd appreciate the recorded relative viability for every entry that follows.
Lab note: record just the number, no unit beside it.

Exercise: Entry COc1cc(N2CCC(C(N)=O)CC2)ccc1Nc1nc(N)c(Cl)c(Nc2ccccc2S(=O)(=O)C(C)C)n1 [HG-5-88-01] + COc1cc2c(Oc3ccc(NC(=O)C4(C(=O)Nc5ccc(F)cc5)CC4)cc3F)ccnc2cc1OCCCN1CCOCC1 [Foretinib] (partner 0.25 µM) , system NCI-H838: what relative viability was measured?
Key: 0.893

Exercise: What do we get for COc1cc(N2CCC(C(N)=O)CC2)ccc1Nc1nc(N)c(Cl)c(Nc2ccccc2S(=O)(=O)C(C)C)n1 [HG-5-88-01] + CC(=O)c1c(C)c2cnc(Nc3ccc(N4CCNCC4)cn3)nc2n(C2CCCC2)c1=O [Palbociclib] (partner 0.5 µM) ?
Key: 0.168

Exercise: What do we get for COc1cc(N2CCC(C(N)=O)CC2)ccc1Nc1nc(N)c(Cl)c(Nc2ccccc2S(=O)(=O)C(C)C)n1 [HG-5-88-01] + O=C(CCCCCCC(=O)Nc1ccccc1)NO [Vorinostat] (partner 1 µM) ?
Key: 0.53

====

test system: NCI-H1355; assay: relative viability (nuclei count vs DMSO), 5 days (fraction); higher = more cells survive; conditions: first compound 0.1265 µM
readoutType: relative viability

Exercise: Need relative viability, item Clc1ccc(Nc2nnc(Cc3ccncc3)c3ccccc23)cc1 [Vatalanib] + C[C@]1(O)C[C@@H](c2nc(-c3ccc4ccc(-c5ccccc5)nc4c3)c3c(N)nccn32)C1 [Linsitinib] (partner 1 µM)
Key: 0.818

Exercise: What do we get for C[C@@H]1CN(CC(=O)Nc2ccc3c(c2)Cc2cccc(-c4cc(=O)cc(N5CCOCC5)o4)c2S3)C[C@H](C)O1 + CS(=O)(=O)CCNCc1ccc(-c2ccc3ncnc(Nc4ccc(OCc5cccc(F)c5)c(Cl)c4)c3c2)o1 [Lapatinib] (partner 2 µM) ?
Key: 0.992

Exercise: What do we get for Clc1ccc(Nc2nnc(Cc3ccncc3)c3ccccc23)cc1 [Vatalanib] + Cc1cc(Nc2cc(N3CCN(C)CC3)nc(Sc3ccc(NC(=O)C4CC4)cc3)n2)n[nH]1 [Tozasertib] (partner 0.1 µM) ?
Key: 0.58

Exercise: What do we get for Clc1ccc(Nc2nnc(Cc3ccncc3)c3ccccc23)cc1 [Vatalanib] + Nc1nc2[nH]cc(CCc3ccc(C(=O)N[C@@H](CCC(=O)O)C(=O)O)cc3)c2c(=O)[nH]1 [Pemetrexed] (partner 0.2 µM) ?
Key: 1.01
